Where these numbers come from: patent US11491157B2

test: in vitro; settings: human
CC50 at 3 days strictly less than 50 µM = condition met. Otherwise condition not met.

Known results for compounds:
C=CCNC(=O)[C@H]1C[C@@H]1c1ccc(-c2cc3nc(C(=O)N4CCc5ccccc5[C@H]4C)cc(C4CC4)n3n2)c(F)c1    condition not met
C[C@@H]1c2ccccc2CCN1C(=O)c1cc(C2CC2)n2nc(-c3ccc([C@H]4C[C@@H]4NC(=O)C4CC4)cc3F)cc2n1    condition not met
C[C@@H]1c2ccccc2CCN1C(=O)c1cc(C2CC2)n2nc(-c3ccc([C@H]4C[C@@H]4C(=O)NCCO)cc3F)cc2n1    condition not met
C[C@@H]1c2ccccc2CCN1C(=O)c1cc(C2CC2)n2nc(-c3cnc(C4C[C@H]4C(=O)NS(C)(=O)=O)cc3F)cc2n1 (relative stereo)    condition not met
CCCNC(=O)[C@H]1C[C@@H]1c1ccc(-c2cc3nc(C(=O)N4CCc5ccccc5[C@H]4C)cc(C4CC4)n3n2)c(F)c1    condition not met

Input line: Criterion: CC50 at 3 days strictly below 50 µM. Is it met by C[C@@H]1c2ccccc2CCN1C(=O)c1cc(C2CC2)n2nc(-c3ccc(C4C[C@H]4C(=O)NS(C)(=O)=O)nc3F)cc2n1 (relative stereo) ?
Output line: condition not met

Input line: Entry to check: C[C@@H]1c2ccsc2CCN1C(=O)c1cc(C2CC2)n2nc(-c3ccc([C@H]4C[C@@H]4C(=O)NS(C)(=O)=O)cc3F)cc2n1 (single isomer, unassigned)
Output line: condition not met

----------
test: in vitro; details: human
Assignment: determine reported CC50 at 3 days for the given molecules.

C[C@@H]1c2ccccc2CCN1C(=O)c1cc(C2CC2)n2nc(-c3ccc([C@H]4C[C@@H](CC(N)=O)C4)cc3F)cc2n1 [Compound 46]    30.4 µM
C[C@@H]1c2ccccc2CCN1C(=O)c1cc(C2CC2)n2nc(-c3ccc([C@H]4C[C@@H]4C(N)=O)cc3F)cc2n1 [Compound 7]    > 100 µM

We now examine a further molecule.
Input line: Endpoint output: CC50 at 3 days of C#CCNC(=O)[C@H]1C[C@@H]1c1ccc(-c2cc3nc(C(=O)N4CCc5ccccc5[C@H]4C)cc(C4CC4)n3n2)c(F)c1 [Compound 17] . Value?
Output line: > 100 µM

----------
Counter-ions that a name gives are not always drawn.
melting point below 200 °C gives Not met; melting point at or above it gives Met.

C[C@@H]1c2ccccc2CCN1C(=O)c1cc(C2CC2)n2nc(-c3ccc([C@H]4C[C@@H]4C(=O)NCCC#N)cc3F)cc2n1 [Compound 18]    Met
C[C@@H]1c2ccccc2CCN1C(=O)c1cc(C2CC2)n2nc(-c3ccc([C@H]4C[C@@H]4C(=O)NS(C)(=O)=O)cc3F)cc2n1 [Compound 24]    Not met
C[C@@H]1c2ccsc2CCN1C(=O)c1cc(C2CC2)n2nc(-c3ccc([C@H]4C[C@@H]4C(=O)NS(C)(=O)=O)cc3F)cc2n1 (single isomer, unassigned) [Compound 28]    Met

Input line: Would you say CNC(=O)[C@H]1C[C@@H]1c1ccc(-c2cc3nc(C(=O)N4CCc5ccccc5[C@H]4C)cc(C4CC4)n3n2)c(F)c1 [Compound 12] shows melting point at minimum 200 °C?
Output line: Met

Input line: Entry to check: C[C@@H]1c2ccccc2CCN1C(=O)c1cc(C2CC2)n2nc(-c3ccc([C@H]4C[C@@H]4C(=O)NC4COC4)cc3F)cc2n1 [Compound 19]
Output line: Met

Input line: Entry to check: C[C@@H]1c2ccccc2CCN1C(=O)c1cc(C2CC2)n2nc(-c3ccc([C@H]4C[C@@H]4NC(=O)NC4CC4)cc3F)cc2n1 [Compound 30]
Output line: Met

Input line: Entry to check: C[C@@H]1c2ccccc2CCN1C(=O)c1cc(C2CC2)n2nc(-c3ccc([C@H]4C[C@@H]4C(N)=O)cc3F)cc2n1 [Compound 7]
Output line: Met

Input line: Entry to check: C[C@@H]1c2ccccc2CCN1C(=O)c1cc(C2CC2)n2nc(-c3ccc([C@H]4C[C@@H]4c4nnn[nH]4)cc3F)cc2n1 [Compound 4]
Output line: Met

Input line: Entry to check: CC(=O)N[C@H]1C[C@@H]1c1ccc(-c2cc3nc(C(=O)N4CCc5ccccc5[C@H]4C)cc(C4CC4)n3n2)c(F)c1 [Compound 34]
Output line: Met

Input line: Entry to check: CCCNC(=O)[C@H]1C[C@@H]1c1ccc(-c2cc3nc(C(=O)N4CCc5ccccc5[C@H]4C)cc(C4CC4)n3n2)c(F)c1 [Compound 15]
Output line: Met

Input line: Entry to check: C=CCNC(=O)[C@H]1C[C@@H]1c1ccc(-c2cc3nc(C(=O)N4CCc5ccccc5[C@H]4C)cc(C4CC4)n3n2)c(F)c1 [Compound 16]
Output line: Met

Input line: Entry to check: C[C@@H]1c2ccccc2CCN1C(=O)c1cc(C2CC2)n2nc(-c3ccc([C@H]4C[C@@H]4C(=O)NS(=O)(=O)C4CC4)cc3F)cc2n1 [Compound 27]
Output line: Not met

Input line: Entry to check: C[C@@H]1c2ccccc2CCN1C(=O)c1cc(-c2ccccc2)n2nc(-c3ccc([C@@H]4C[C@H]4C(=O)NS(C)(=O)=O)cc3F)cc2n1 (single isomer, unassigned) (as salt: salt) [Compound 32]
Output line: Not met

Input line: Entry to check: C[C@@H]1c2ccsc2CCN1C(=O)c1cc(C2CC2)n2nc(-c3ccc([C@H]4C[C@@H]4C(N)=O)cc3F)cc2n1 (single isomer, unassigned) [Compound 10]
Output line: Met

Input line: Entry to check: C[C@@H]1c2cc(F)sc2CCN1C(=O)c1cc(C2CC2)n2nc(-c3ccc([C@H]4C[C@@H]4C(N)=O)cc3F)cc2n1 (relative stereo) [Compound 11]
Output line: Met

Input line: Entry to check: C[C@@H]1c2ccccc2CCN1C(=O)c1cc(C2CC2)n2nc(-c3ccc([C@H]4C[C@@H]4OC(N)=O)cc3F)cc2n1 [Compound 39]
Output line: Met

Input line: Entry to check: CC(C)CS(=O)(=O)NC(=O)[C@H]1C[C@@H]1c1ccc(-c2cc3nc(C(=O)N4CCc5ccccc5[C@H]4C)cc(C4CC4)n3n2)c(F)c1 [Compound 26]
Output line: Not met

Input line: Entry to check: C[C@@H]1c2ccccc2CCN1C(=O)c1cc(C2CC2)n2nc(-c3ccc([C@H]4C[C@@H](CO)C4)cc3F)cc2n1 [Compound 42]
Output line: Not met

Input line: Entry to check: CCS(=O)(=O)NC(=O)[C@H]1C[C@@H]1c1ccc(-c2cc3nc(C(=O)N4CCc5ccccc5[C@H]4C)cc(C4CC4)n3n2)c(F)c1 [Compound 25]
Output line: Not met

Input line: Entry to check: C[C@@H]1c2ccccc2CCN1C(=O)c1cc(C2CC2)n2nc(-c3ccc([C@H]4C[C@@H](COC(N)=O)C4)cc3F)cc2n1 [Compound 44]
Output line: Met

Input line: Entry to check: CNC(=O)O[C@H]1C[C@@H]1c1ccc(-c2cc3nc(C(=O)N4CCc5ccccc5[C@H]4C)cc(C4CC4)n3n2)c(F)c1 [Compound 40]
Output line: Met

Input line: Entry to check: CNC(=O)C[C@H]1C[C@@H](c2ccc(-c3cc4nc(C(=O)N5CCc6ccccc6[C@H]5C)cc(C5CC5)n4n3)c(F)c2)C1 [Compound 48]
Output line: Not met

----------
assay: Cytotoxicity in HeLa cells (ATP content, ATPlite kit); conditions: human
reported.property: CC50 at 3 days (µM)
Answers are plain numbers, in µM.

Input line: Endpoint output: CC50 at 3 days of C[C@@H]1c2ccccc2CCN1C(=O)c1cc(C2CC2)n2nc(-c3ccc([C@H]4C[C@@H]4NP(C)(C)=O)cc3F)cc2n1 . Value?
Output line: 41.6

----------
test: in vitro; conditions: human
reported.property: CC50 at 3 days

Please review the following examples before continuing.
C[C@@H]1c2ccccc2CCN1C(=O)c1cc(C2CC2)n2nc(-c3ccc([C@H]4C[C@H](COC(N)=O)C4)cc3F)cc2n1    > 100 µM
CCS(=O)(=O)NC(=O)[C@H]1C[C@@H]1c1ccc(-c2cc3nc(C(=O)N4CCc5ccccc5[C@H]4C)cc(C4CC4)n3n2)c(F)c1    51.9 µM

Dear reader, for each entry below, please note its CC50 at 3 days.
1. C[C@@H]1c2ccccc2CCN1C(=O)c1cc(C2CC2)n2nc(-c3ccc([C@H]4C[C@@H]4C(=O)NS(C)(=O)=O)cc3F)cc2n1
2. C[C@@H]1c2ccccc2CCN1C(=O)c1cc(C2CC2)n2nc(-c3ccc([C@H]4C[C@@H]4C(=O)NCCC#N)cc3F)cc2n1

Output line:
1: 44.9 µM; 2: > 100 µM

Dear reader, for each entry below, please note its CC50 at 3 days.
1. C[C@@H]1c2ccccc2CCN1C(=O)c1cc(C2CC2)n2nc(-c3ccc([C@H]4C[C@H](CO)C4)cc3F)cc2n1
2. C[C@@H]1c2ccccc2CCN1C(=O)c1cc(C2CC2)n2nc(-c3ccc([C@H]4C[C@@H]4C(=O)N4CCCC4)cc3F)cc2n1
3. C[C@@H]1c2ccccc2CCN1C(=O)c1cc(C2CC2)n2nc(-c3ccc([C@H]4C[C@@H](CO)C4)cc3F)cc2n1
4. C[C@@H]1c2ccccc2CCN1C(=O)c1cc(C2CC2)n2nc(-c3ccc([C@H]4C[C@@H]4O)cc3F)cc2n1
5. C[C@@H]1c2ccccc2CCN1C(=O)c1cc(-c2ccccc2)n2nc(-c3ccc([C@@H]4C[C@H]4C(=O)NS(C)(=O)=O)cc3F)cc2n1 (single isomer, unassigned)

Output line:
1: 49.8 µM; 2: 16.9 µM; 3: 69.2 µM; 4: 50.4 µM; 5: 37.3 µM

Dear reader, for each entry below, please note its CC50 at 3 days.
1. C[C@@H]1c2ccccc2CCN1C(=O)c1cc(C2CC2)n2nc(-c3cnc(C4C[C@H]4C(N)=O)cc3F)cc2n1 (relative stereo)
2. CNC(=O)O[C@H]1C[C@@H]1c1ccc(-c2cc3nc(C(=O)N4CCc5ccccc5[C@H]4C)cc(C4CC4)n3n2)c(F)c1
3. C[C@@H]1c2ccccc2CCN1C(=O)c1cc(C2CC2)n2nc(-c3ccc([C@H]4C[C@@H](COC(N)=O)C4)cc3F)cc2n1
4. CNC(=O)C[C@H]1C[C@H](c2ccc(-c3cc4nc(C(=O)N5CCc6ccccc6[C@H]5C)cc(C5CC5)n4n3)c(F)c2)C1
5. C[C@@H]1c2ccccc2CCN1C(=O)c1cc(C2CC2)n2nc(-c3ccc([C@H]4C[C@@H]4OC(N)=O)cc3F)cc2n1
6. C[C@@H]1c2ccccc2CCN1C(=O)c1cc(-c2ccccc2)n2nc(-c3ccc([C@H]4C[C@@H]4C(=O)NS(C)(=O)=O)cc3F)cc2n1 (single isomer, unassigned)
7. C[C@@H]1c2ccccc2CCN1C(=O)c1cc(C2CC2)n2nc(-c3ccc(C4C[C@H]4C(N)=O)nc3F)cc2n1 (relative stereo)
8. COC(=O)N[C@H]1C[C@@H]1c1ccc(-c2cc3nc(C(=O)N4CCc5ccccc5[C@H]4C)cc(C4CC4)n3n2)c(F)c1

Output line:
["10.8 µM", "> 100 µM", "> 100 µM", "25.8 µM", "12.5 µM", "35.2 µM", "25.9 µM", "> 100 µM"]
